- System: Pasteurella multocida CVCC399
- assay: in vitro susceptibility, MIC by mini broth dilution
- Format: cell-based
- assayConditions: strain CVCC399
Attribute: MIC values, Pasteurella multocida CVCC399
Number only, in ug/mi; omit the unit.

[
  {
    "compound": "CC[C@H]1OC(=O)[C@H](C)[C@@H](O[C@H]2C[C@@](C)(OC)[C@](O)(CNCCc3c[nH]c4ccccc34)[C@H](C)O2)[C@H](C)[C@@H](O[C@@H]2O[C@H](C)C[C@H](N(C)C)[C@H]2O)[C@](C)(O)C[C@@H](C)NC[C@H](C)[C@@H](O)[C@]1(C)O [syzx-74]",
    "measurementTarget": "Pasteurella multocida CVCC399",
    "valueMeasured": 1
  }
]

Given CC[C@H]1OC(=O)[C@H](C)[C@@H](O[C@H]2C[C@@](C)(OC)[C@](O)(CN(C)C)[C@H](C)O2)[C@H](C)[C@@H](O[C@@H]2O[C@H](C)C[C@H](N(C)C)[C@H]2O)[C@](C)(O)C[C@@H](C)NC[C@H](C)[C@@H](O)[C@]1(C)O [Syzx-24] , state its recorded MIC values, Pasteurella multocida CVCC399.
0.25

Same question, CCCN1C[C@H](C)[C@@H](O)[C@](C)(O)[C@@H](CC)OC(=O)[C@H](C)[C@@H](O[C@H]2C[C@@](C)(OC)[C@](O)(CNCc3cc(F)cc(F)c3)[C@H](C)O2)[C@H](C)[C@@H](O[C@@H]2O[C@H](C)C[C@H](N(C)C)[C@H]2O)[C@](C)(O)C[C@H]1C [syzx-155] this time
0.5

Entry to check: CCCN1C[C@H](C)[C@@H](O)[C@](C)(O)[C@@H](CC)OC(=O)[C@H](C)[C@@H](O[C@H]2C[C@@](C)(OC)[C@](O)(CNC(C)CCc3ccccc3)[C@H](C)O2)[C@H](C)[C@@H](O[C@@H]2O[C@H](C)C[C@H](N(C)C)[C@H]2O)[C@](C)(O)C[C@H]1C (stereo partly shown) [syzx-134]
0.5
